Here, each record is paired with measured EC50 data.
- Test system: ER-alpha MCF7
- TEST_SUMMARY: ER-alpha MCF7 HCS EC50; stated as measured by in vitro cell proliferation assays of Examples 902 and 903
- Assay type: cell-based
- STATED_CONDITIONS: Homo sapiens, MCF7, MCF7 cells; Table 2
- Experimental: The CellTiter-Glo® Luminescent Cell Viability Assay is a homogeneous method to determine the number of viable cells in culture based on quantitation of the ATP present, which signals the presence of metabolically active cells. […] Day 5—Develop Plates, Thaw Cell Titer Glo Buffer at room temperature: Remove Cell Plates from 37° C. and equilibrate to room temperature for about 30 minutes. […] Read luminescence on Analyst HT Plate Reader (half second per well). […]
Respond with the bare value in nM.

| MOLECULE | TGT | RECORDED_METRIC | REPORTED_RESULT |
| --- | --- | --- | --- |
| C[C@@H]1Cc2c([nH]c3ccccc23)[C@@H](c2c(F)cc(OCCN3CC(CF)C3)cc2F)N1CC(C)(F)F [Example 379] | ER-alpha MCF7 | EC50 | 0.28 |

Query string: Value lookup for EC50; key = CC(=O)CN1[C@@H](c2c(F)cc(OC3CN(CCCF)C3)cc2F)c2[nH]c3ccccc3c2C[C@H]1C [Example 295]
Result string: 21

Query string: Value lookup for EC50; key = C[C@@H]1Cc2c([nH]c3ccccc23)[C@@H](c2c(F)cc(OCCN3CC(CF)C3)cc2F)N1C(=O)C1CCCCC1 [Example 137]
Result string: 28

Query string: Value lookup for EC50; key = C[C@H]1Cc2c([nH]c3ccc(F)cc23)[C@H](c2c(F)cc(OCCN3CC(CF)C3)cc2F)N1CC(F)F [Example 384]
Result string: 29

Query string: Value lookup for EC50; key = C[C@H](CN1[C@H](c2c(F)cc(OCCN3CC(CF)C3)cc2F)c2[nH]c3ccccc3c2C[C@H]1C)C(=O)O [Example 300]
Result string: 1

Query string: Value lookup for EC50; key = C[C@@H]1Cc2c([nH]c3ccccc23)[C@@H](c2c(F)cc(OC3CN(CC4(CF)CC4)C3)cc2F)N1CC(C)(C)F [Example 427]
Result string: 0.278

Query string: Value lookup for EC50; key = C[C@@H]1Cc2c([nH]c3ccccc23)[C@@H](c2c(F)cc(OCCN3CC(CF)C3)cc2F)N1CC(F)(F)F [Example 174]
Result string: 0.285

These entries and their values trace back to patent US20250114338A1.
